test system: Brevibacterium epidermidis DSMZ 9586; test: MIC against Brevibacterium epidermidis; type: cell-based; conditions: DSMZ 9586, method of Example 1
outcome-measure: MIC for Brevibacterium epidermidis (% w/v)
Output spec: scalar in % w/v, unitless text.

Illustrative cases are given below, each with its answer.
[
  {
    "molecule": "CC(C)=CCCC(C)=CCCC(C)=CCO",
    "outcome-measure": "MIC for Brevibacterium epidermidis",
    "endpoint-value": 0.0078
  },
  {
    "molecule": "Oc1cc(Cl)ccc1Oc1ccc(Cl)cc1Cl",
    "outcome-measure": "MIC for Brevibacterium epidermidis",
    "endpoint-value": 0.003125
  }
]

Lab note: CCC(=CCC1CC=C(C)C1(C)C)CO (stereo not shown) gave MIC for Brevibacterium epidermidis of 0.03125

For record CC1=CCC(CCC(C)C(C)O)C1(C)C (stereo not shown) the listed MIC for Brevibacterium epidermidis is 0.0937
